system: A549-GM130-SQSTM1; assay: phenotypically active (imaging signature differs from DMSO and reproducible) at any of 0.3-9 uM (binary (1 = active, 0 = inactive)); higher = active; settings: treatment time: 24 h
Structures can show the parent of a compound that is named as a salt.
Log the outcome using a class from active, inactive

CCN(CCO)CCCOc1ccc2c(Nc3cc(CC(=O)Nc4cccc(F)c4)n[nH]3)ncnc2c1 : active
C#C[C@]1(O)CC[C@H]2[C@@H]3CCC4=Cc5oncc5C[C@]4(C)[C@H]3CC[C@@]21C : inactive
O=C([C@@H](Cc1cccc(C(F)(F)F)c1)NS(=O)(=O)c1cc(F)c2c(c1)CCNC2)N1CCCC1 [(R)-PFI 2 hydrochloride] : active
O=C(O)c1ccc(N2N=C(Cc3ccccc3)/C(=C/c3ccc(-c4ccccc4F)o3)C2=O)cc1 : inactive

Would you mind telling me which call this test gave CCC(NC(C)C)C(O)c1ccc(O)c(O)c1 (stereo not drawn) ?
inactive

Dear all, I need the recorded test outcome for CC(C(=O)Nc1cccc(/N=C/c2c(O)ccc3ccccc23)c1)c1ccccc1 (stereo not drawn) [Salermide] , thank you.
inactive

For "O=C(CCCCCCC(=O)NO)NO" , which call appears in the assay record?
inactive

----------
tested on: HepG2-TUBA1B-RELA; assay: phenotypically active (imaging signature differs from DMSO and reproducible) at any of 0.3-9 uM (binary (1 = active, 0 = inactive)); higher = active; details: treatment time: 24 h
Where a name gives a salt, the structure may show the parent alone.
outcome measure: phenotypically active
Give only the figure.

Some entries whose results are on file:
CN(C)CCOC(c1ccccc1)c1ccccc1 [diphenhydramine] : 0
C[C@H](Cc1cc2c(c(C(N)=O)c1)N(CCCO)CC2)NCCOc1ccccc1OCC(F)(F)F : 0

According to the records, this compound "O=C(c1ccc(C(=O)N2CCC(N3CCCC3)CC2)c(Nc2ccccc2)c1)N1CCC(N2CCCC2)CC1" displays phenotypically active of 0

Given item "CC(C)C(=O)c1c(C(C)C)nn2ccccc12" , the value recorded as its phenotypically active is 0

The reported value for NCCNS(=O)(=O)c1ccc(Cl)c2ccncc12 [CKI 7 dihydrochloride] in terms of phenotypically active is 0

phenotypically active measured on COc1cc(OC)c2cc(-c3ccncc3)cnc2c1 [DMPQ dihydrochloride] = 0

phenotypically active reading for CCN(CC)CCNC(=O)c1cc(Cl)c(N)cc1OC [metoclopramide] : 0

Record summary for "C[C@H]1[C@H]2CC[C@H]3[C@@H]4CC=C5C[C@@H](N(C)C)CC[C@]5(C)[C@H]4CC[C@]23CN1C" : reported phenotypically active = 1

phenotypically active measured on "Cc1c(O)cccc1C(=O)N[C@@H](CSc1ccccc1)[C@H](O)CN1C[C@H]2CCCC[C@H]2C[C@H]1C(=O)NC(C)(C)C" = 1

Lab book: phenotypically active of NS(=O)(=O)c1cc2c(cc1Cl)N=CNS2(=O)=O [chlorothiazide] noted as 0

----------
Recorded phenotypically active values for a group of compounds are listed next.
test system: HepG2-TP53BP1-CLTA; assay: phenotypically active (imaging signature differs from DMSO and reproducible) at any of 0.3-9 uM (binary (1 = active, 0 = inactive)); higher = active; conditions: treatment time: 24 h
Answer using only a numeral; do not append any unit.

Below: 3 compounds and their reported phenotypically active.
COc1cc(C(C)=O)ccc1OCCCN1CCC(c2noc3cc(F)ccc23)CC1 [iloperidone] : 0
CNS(=O)(=O)CCc1ccc2[nH]cc(C3CCN(C)CC3)c2c1 [naratriptan] : 0
CCOC(=O)[C@H](CCc1ccccc1)N[C@@H](C)C(=O)N1Cc2ccccc2C[C@H]1C(=O)O [quinapril] : 0

Next:
Please fill in: phenotypically active reported for CC1(C)O[C@@H]2C[C@H]3[C@@H]4C[C@H](F)C5=CC(=O)C=C[C@]5(C)[C@@]4(F)[C@@H](O)C[C@]3(C)[C@]2(C(=O)CO)O1 [fluocinolone acetonide] = 0

----------
tested on: WPMY1-ACTB-RAB5A; test: phenotypically active (imaging signature differs from DMSO and reproducible) at any of 0.3-9 uM (binary (1 = active, 0 = inactive)); higher = active; details: treatment time: 24 h
outcome measure: phenotypically active
Keep it simple and answer with nothing but the number.

See these solved cases before continuing.
Nc1ncnc2c1c(-c1ccc(Oc3ccccc3)cc1)nn2C1CCCC1 : 0
O=C1CCc2cc(OCCCCc3nnnn3C3CCCCC3)ccc2N1 [Cilostazol] : 0

As a next step, examine the molecule that follows.
phenotypically active for "CCCOc1ccn2c(C(C)=O)cc(-c3ccccc3S(C)(=O)=O)c2c1" is 0

----------
Known phenotypically active of a selection of compounds
test system: HepG2-TP53BP1-CLTA; test: phenotypically active (imaging signature differs from DMSO and reproducible) at any of 0.3-9 uM (binary (1 = active, 0 = inactive)); higher = active; details: treatment time: 24 h
Reply with the value as a number alone.

Take a look at these entries with their results.
CN1C(=O)CC(C)(c2ccccc2)C1=O (stereo not drawn) [methsuximide] : 0
COc1c2occc2cc2ccc(=O)oc12 : 0
CN(C)CCCN1c2ccccc2CCc2ccc(Cl)cc21 : 1

CC(C(=O)O)c1cccc(C(=O)c2ccccc2)c1 (stereo not drawn) has a reported phenotypically active of 0

The measured phenotypically active associated with CCN(CCO)CCCC(C)Nc1ccnc2cc(Cl)ccc12 (stereo not drawn) [hydroxychloroquine] reads 0

Measured phenotypically active, "COc1cc2c(Nc3ccc(Br)cc3F)ncnc2cc1OCC1CCN(C)CC1" : 1

Data point: "O=C1NCCCc2c1oc1ccc(O)cc21" ; phenotypically active = 0

For reference, reported phenotypically active for "O=C(COc1cccc2c(=O)[nH]ccc12)c1ccccc1" stands at 0

// phenotypically active lookup, compound = CCCC(=O)O [Sodium butyrate] , result: 0

Entry "O=P(O)(O)C(O)(Cn1ccnc1)P(=O)(O)O" ; phenotypically active = 0

----------
tested on: A549-TP53BP1-CLTA; experiment: lowest phenotypically active concentration; higher = less potent; details: treatment time: 24 h
Structures can show the parent of a compound that is named as a salt.
outcome measure: lowest phenotypically active concentration

These solved cases illustrate the format of a correct answer.
Cc1cc(Nc2ccc(NC(=O)c3ccc(Nc4ccnc5ccccc45)cc3)cc2)nc(N)n1 : 9 µM
Cc1ncc(-c2ccnc(Nc3ccc(S(C)(=O)=O)cc3)n2)n1C(C)C : ≤ 0.3 µM
Nc1ccn([C@@H]2O[C@H](CO)[C@@H](O)C2(F)F)c(=O)n1 : ≤ 0.3 µM
Cc1nnc(-c2ccc3occ(-c4ccc(S(C)=O)cc4)c3c2)o1 (configuration not stated) : 9 µM
CCOC(=O)Nc1cc(-c2ccc(C)c(NS(C)(=O)=O)c2)nn2c(C)nnc12 : 1 µM
CCN(CCO)CCCOc1ccc2c(Nc3cc(CC(=O)Nc4cccc(F)c4)n[nH]3)ncnc2c1 : ≤ 0.3 µM

Summary line: OC[C@H]1O[C@@H](n2cnc3c(NCc4ccco4)ncnc32)[C@H](O)[C@@H]1O [Kinetin riboside] , A549-TP53BP1-CLTA, reported lowest phenotypically active concentration = 3 µM

Entry "Cc1nc(Nc2ncc(C(=O)Nc3c(C)cccc3Cl)s2)cc(N2CCN(CCO)CC2)n1" , tested on A549-TP53BP1-CLTA, has a reported lowest phenotypically active concentration of ≤ 0.3 µM

Hey, A549-TP53BP1-CLTA data for "COc1cc(O)cc(O)c1C(=O)/C=C/c1ccccc1" : lowest phenotypically active concentration came out at 9 µM

Lab entry: A549-TP53BP1-CLTA assay, compound "CN1C/C(=C/c2ccc(B(O)O)cc2)C(=O)/C(=C/c2ccc(B(O)O)cc2)C1" , lowest phenotypically active concentration = ≤ 0.3 µM

For "Cc1nc(NC(=O)N2CCC[C@H]2C(N)=O)sc1-c1ccnc(C(C)(C)C(F)(F)F)c1" on A549-TP53BP1-CLTA, measured lowest phenotypically active concentration was 9 µM

Tested system A549-TP53BP1-CLTA; lowest phenotypically active concentration recorded for "CN(C)CCCNc1c2c(=O)n(C)c(=O)nc-2n(C)c2ccccc12" was 9 µM

The value of lowest phenotypically active concentration recorded for "COc1cc2c(N3CCN(C(=O)Nc4ccc(OC(C)C)cc4)CC3)ncnc2cc1OCCCN1CCCCC1" when tested on A549-TP53BP1-CLTA reads 9 µM

Lab note: compound "N#Cc1c(NC(=O)c2cccc3ccccc23)sc2c1CCCC2" tested on A549-TP53BP1-CLTA; recorded lowest phenotypically active concentration was ≤ 0.3 µM

// compound O=C1NC(=O)[C@@H](c2cn3c4c(cccc24)CCC3)[C@@H]1c1c[nH]c2ccccc12 [tivantinib] , assay A549-TP53BP1-CLTA, lowest phenotypically active concentration value: 1 µM

Readout lowest phenotypically active concentration for CO[C@H]1C=CC=C(C)C(=O)NC2=CC(=O)C(NCCN(C)C)=C(C[C@@H](C)C[C@H](OC)[C@H](O)[C@@H](C)C=C(C)[C@@H]1OC(N)=O)C2=O [17-DMAG hydrochloride] , test system A549-TP53BP1-CLTA, was ≤ 0.3 µM

Simply: COc1ccc(C[C@H](N)C(=O)N[C@H]2[C@@H](O)[C@H](n3cnc4c(N(C)C)ncnc43)O[C@@H]2CO)cc1 [Puromycin dihydrochloride] , A549-TP53BP1-CLTA, lowest phenotypically active concentration = 1 µM

A549-TP53BP1-CLTA data for "O=C(Nc1cccnc1)N1CCC(Cc2cccc(Oc3ccc(C(F)(F)F)cn3)c2)CC1" ; its lowest phenotypically active concentration: 9 µM

Field lowest phenotypically active concentration (A549-TP53BP1-CLTA), entry "Nc1ncnc2c1c(-c1cnc3[nH]ccc3c1)nn2C1CCCC1" : ≤ 0.3 µM

Hey, A549-TP53BP1-CLTA data for CC(C)n1c(/C=C/[C@@H](O)C[C@@H](O)CC(=O)O)c(-c2ccc(F)cc2)c2ccccc21.CC(C)n1c(/C=C/[C@H](O)C[C@H](O)CC(=O)O)c(-c2ccc(F)cc2)c2ccccc21 [Fluvastatin sodium] : lowest phenotypically active concentration came out at 9 µM

// lowest phenotypically active concentration (A549-TP53BP1-CLTA) for CN1CCc2cccc3c2[C@H]1Cc1ccc(O)c(O)c1-3 [r(-)-apomorphine] = 9 µM

Form: item CC(C)CCN1c2nc(Nc3cc(F)c(O)c(F)c3)ncc2N(C)C(=O)C1C (configuration not stated) ; test system A549-TP53BP1-CLTA; lowest phenotypically active concentration: 3 µM
